- Test system: rodent lifetime carcinogenesis bioassay, tumor incidence TD50
- protocol.details: carcinogenic potency in animals, long-term in vivo studies, CPDB compilation (AID 1745844)
- conditions.used: mouse; strain Swiss; females; inhaled; site: lung; lesion: carcinoma; dosed 26 weeks; study length 104 weeks
observation.type: TD50

* C=CCl | 36.6 mg/kg/day

---

- Test system: rodent lifetime carcinogenesis bioassay, tumor incidence TD50
- protocol.details: carcinogenic potency in animals, long-term in vivo studies, CPDB compilation (AID 1745844)
- conditions.used: mouse; strain NZO/BlGd; females; in drinking water; site: esophagus; lesion: several types; types named in the paper; dosed 32 weeks; study length 74 weeks
observation.type: TD50

- O=NN1CCCCCC1: 0.725 mg/kg/day
